Values were extracted from patent US20250262201A1.

Molecular target: human PAH with the R408W mutation (Homo sapiens, UniProt P00439, R408W)
Construct: expressed in transfected cells
Sequence (P00439 whole entry R408W): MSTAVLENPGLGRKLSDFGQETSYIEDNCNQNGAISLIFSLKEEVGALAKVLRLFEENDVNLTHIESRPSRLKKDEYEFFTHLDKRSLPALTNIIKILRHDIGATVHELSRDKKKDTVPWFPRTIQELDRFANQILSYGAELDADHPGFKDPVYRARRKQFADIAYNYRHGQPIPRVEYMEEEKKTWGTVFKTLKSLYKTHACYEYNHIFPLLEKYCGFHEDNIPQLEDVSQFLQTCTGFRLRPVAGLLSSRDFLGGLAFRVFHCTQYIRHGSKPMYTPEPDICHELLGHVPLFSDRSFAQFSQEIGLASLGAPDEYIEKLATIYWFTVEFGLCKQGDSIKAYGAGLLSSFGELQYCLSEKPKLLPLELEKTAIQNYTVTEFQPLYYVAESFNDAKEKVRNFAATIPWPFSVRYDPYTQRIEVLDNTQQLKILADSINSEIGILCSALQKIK
Test: Cell Based Phenylalanine Flux Assay
Conditions: A375 R408W cells, 24 hrs with compound, then 20 μM sepiapterin and 800 μM 13C9,15N-Phenylalanine for 4 hours; 13C-Tyrosine by LC-MS; average where tested multiple times; read-out: AC50
parameter: AC50

[ask] Need AC50 of O=C(c1oc(-c2ccccn2)nc1C1CC1)N1CCc2nc[nH]c2[C@H]1c1cn2ccccc2n1 (single isomer, unassigned) , thanks.
[reply] > 5 µM

[ask] What about Cc1nc(N2CCN(C)CC2)oc1C(=O)N1CCc2[nH]cnc2C1c1ccc2ccccc2n1 (centres unmarked) ?
[reply] 1 to 5 µM

[ask] Now the compound O=C(Cc1nc(C(F)(F)F)cs1)N1CCc2[nH]cnc2C1c1cn2ccccc2n1 (centres unmarked)
[reply] 1 to 5 µM

[ask] Same read-out for O=C(c1nnc(N2CCC(F)CC2)o1)N1CCc2[nH]cnc2C1c1ccc2ccccc2n1 (centres unmarked) ?
[reply] > 5 µM

[ask] Would you mind doing O=C(Cc1cnn2ccccc12)N1CCc2[nH]cnc2C1c1ccc2ccccc2n1 (centres unmarked) as well?
[reply] 1 to 5 µM
